- Target Entity: porcine pancreatic elastase (PPE) (Sus scrofa, UniProt P00772)
- Sequence (P00772 27-266): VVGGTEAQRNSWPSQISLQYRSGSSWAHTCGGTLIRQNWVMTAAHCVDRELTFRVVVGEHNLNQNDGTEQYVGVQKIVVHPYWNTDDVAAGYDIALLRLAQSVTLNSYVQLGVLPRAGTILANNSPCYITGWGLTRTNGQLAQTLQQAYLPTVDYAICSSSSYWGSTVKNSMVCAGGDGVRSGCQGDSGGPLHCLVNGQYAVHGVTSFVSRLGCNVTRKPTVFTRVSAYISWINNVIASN
pIC50: −log10 of the molar value.

Compound: C=C[C@@H]1C[C@]1(NC(=O)[C@@H]1C[C@@](SCCCC)(c2ccc(-c3ccccc3)cc2)CN1C(=O)[C@@H](NC(=O)OC(C)(C)C)C(C)(C)C)C(=O)NS(=O)(=O)C1CC1 [Example 1]
pIC50: < 4.60

###

- Target Entity: human neutrophil elastase (HNE) (Homo sapiens, UniProt P08246)
- Sequence (P08246 30-267): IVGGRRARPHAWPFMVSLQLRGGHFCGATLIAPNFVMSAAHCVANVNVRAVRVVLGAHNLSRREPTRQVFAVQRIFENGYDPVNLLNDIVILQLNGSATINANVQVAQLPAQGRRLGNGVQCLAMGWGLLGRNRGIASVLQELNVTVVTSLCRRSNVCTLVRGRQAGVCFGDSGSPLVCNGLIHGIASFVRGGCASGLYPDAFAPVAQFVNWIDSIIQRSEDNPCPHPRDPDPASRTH
- Assay Name: Specificity assay, human neutrophil elastase
- Recorded Conditions: read-out: HLE (specificity assay IC50)

Molecule: C=C[C@@H]1C[C@]1(NC(=O)[C@@H]1C[C@@](SCCCC)(c2ccc(-c3ccccc3)cc2)CN1C(=O)[C@@H](NC(=O)OC(C)(C)C)C(C)(C)C)C(=O)NS(=O)(=O)C1CC1 [Example 1]
IC50: > 12.1 µM

###

- Target Entity: HCV NS3/4A protease complex, H77 strain (Hepatitis C virus genotype 1a, UniProt P27958, C1454S/C1711G)
- Construct: DNA encoding the recombinant HCV NS3/4A protease complex (amino acids 1027 to 1711) for these strains; His tag (inferred from pET21b vector and Ni-NTA purification)
- Sequence (P27958 1027-1711 C1454S/C1711G, one chain of several): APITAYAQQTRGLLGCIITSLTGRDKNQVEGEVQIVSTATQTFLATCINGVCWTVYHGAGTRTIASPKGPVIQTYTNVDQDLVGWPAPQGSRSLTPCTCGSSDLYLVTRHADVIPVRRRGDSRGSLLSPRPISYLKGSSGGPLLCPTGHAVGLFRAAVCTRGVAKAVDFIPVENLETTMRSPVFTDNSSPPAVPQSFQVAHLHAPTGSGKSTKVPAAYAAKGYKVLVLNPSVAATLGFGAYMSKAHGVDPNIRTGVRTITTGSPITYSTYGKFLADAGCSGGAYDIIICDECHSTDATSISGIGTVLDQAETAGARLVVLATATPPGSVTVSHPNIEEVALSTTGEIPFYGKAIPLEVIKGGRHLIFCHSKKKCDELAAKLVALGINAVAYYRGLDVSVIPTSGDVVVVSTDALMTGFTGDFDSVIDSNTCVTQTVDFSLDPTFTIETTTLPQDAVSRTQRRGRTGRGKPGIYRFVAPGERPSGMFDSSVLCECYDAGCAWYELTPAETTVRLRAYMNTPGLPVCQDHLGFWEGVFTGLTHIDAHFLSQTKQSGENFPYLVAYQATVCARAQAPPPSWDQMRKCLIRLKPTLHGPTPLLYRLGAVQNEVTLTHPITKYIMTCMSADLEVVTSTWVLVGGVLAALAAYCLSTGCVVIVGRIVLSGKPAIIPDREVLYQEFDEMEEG
- Assay Name: FRET peptide assay to monitor HCV NS3/4A proteolytic activity (H77 strain)
pIC50: −log10 of the molar value.
Measurement Name: pIC50

Compound: C=C[C@@H]1C[C@]1(NC(=O)[C@@H]1C[C@@](SCCCC)(c2ccc(-c3ccccc3)cc2)CN1C(=O)[C@@H](NC(=O)OC(C)(C)C)C(C)(C)C)C(=O)NS(=O)(=O)C1CC1 [Example 1]
Measurement Name: pIC50
Numeric Result: 8.77
